Assign pIC50 to each entry below.
Molecular target: human DGKα (Homo sapiens)
Construct: inferred from the same paragraph's 'obtained from Carna Biosciences')
Sequence (P23743 whole entry): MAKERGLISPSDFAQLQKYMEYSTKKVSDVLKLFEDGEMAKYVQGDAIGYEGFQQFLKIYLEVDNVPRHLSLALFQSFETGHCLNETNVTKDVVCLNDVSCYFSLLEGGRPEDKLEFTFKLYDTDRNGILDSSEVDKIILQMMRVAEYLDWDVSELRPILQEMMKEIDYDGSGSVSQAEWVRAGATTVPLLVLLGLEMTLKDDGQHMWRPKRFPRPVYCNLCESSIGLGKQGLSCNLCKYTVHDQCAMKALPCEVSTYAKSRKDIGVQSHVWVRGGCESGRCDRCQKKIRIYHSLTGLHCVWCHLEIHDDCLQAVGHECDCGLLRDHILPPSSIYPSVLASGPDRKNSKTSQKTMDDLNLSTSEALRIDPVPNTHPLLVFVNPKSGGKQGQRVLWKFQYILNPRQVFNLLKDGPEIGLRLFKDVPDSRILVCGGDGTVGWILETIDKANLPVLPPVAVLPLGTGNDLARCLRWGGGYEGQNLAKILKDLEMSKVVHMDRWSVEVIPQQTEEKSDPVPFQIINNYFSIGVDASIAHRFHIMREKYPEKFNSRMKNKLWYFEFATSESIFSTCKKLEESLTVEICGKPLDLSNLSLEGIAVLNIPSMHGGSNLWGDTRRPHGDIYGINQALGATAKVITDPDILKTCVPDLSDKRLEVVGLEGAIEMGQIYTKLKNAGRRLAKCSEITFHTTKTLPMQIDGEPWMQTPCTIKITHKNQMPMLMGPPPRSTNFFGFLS
Assay: DGKα Biochemical Activity Assay (ADP-Glo);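 also: recombinant enzyme converting diacylglycerol in lipid micelles with ATP, ADP formed detected by luminescence, IC50 from a four-parameter nonlinear fit, geometric mean across experiments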
Answers are plain numbers, as −log10 of the molar value.

Below, 5 compounds whose answers are already recorded.
CC(C)(C#N)C#Cc1cc(F)cc(N(CC(F)F)c2nc(=O)[nH]c3ccc(F)c(F)c23)c1 [Example 69]    7.57
CN(c1cccc(C#CC(C)(C)O)c1)c1nc(=O)n(C)c2cc(Cl)ccc12 [Example 4]    7.77
O=c1nc(N2CCOCc3c(C#CC4(C(F)(F)F)CC4)cccc32)c2c(F)c(F)ccc2[nH]1 [Example 89]    8.65
[2H]C([2H])([2H])n1c(=O)nc(N2CCOCc3c(C#Cc4coc(C)n4)cccc32)c2c(F)cccc21 [Example 177]    7.76
O=c1nc(N(CC(F)F)c2ccnc(C#CC3(C(F)(F)F)CC3)c2F)c2c(F)cccc2[nH]1 [Example 118]    7.59

Next up:
Query :: Look at this compound and give its reported pIC50. [2H]C([2H])([2H])n1c(=O)nc(N2CCOCc3c(C#CC4(C)COC4)cccc32)c2c(F)cccc21 [Example 101]
Result :: 8.58
